Where do the numbers come from? From paper PMC9338108.

- protocolDescription: clinical
- particulars: human, plasma, po, 1000 mg
attributeMeasured: Cmax (ng/mL)
Provide only the numeric value, understood in ng/mL.

Item: CN(C)C(=N)N=C(N)N | Cmax: 1650

* * *

- Assay type: in vivo, human
- particulars: human, plasma, iv, 200 mg/m2
attributeMeasured: AUC(0-inf) (ng·h/mL)
Provide only the numeric value, understood in ng·h/mL.

Item: CN1CCN(c2ccc(Nc3ncc4cc5n(c4n3)C3(CCCCC3)CNC5=O)nc2)CC1 [Trilaciclib, trilaciclib] | AUC(0-inf): 3120

* * *

- Assay type: in vivo, human
- particulars: human, plasma, oral
attributeMeasured: Vd/F (L)
Provide only the numeric value, understood in L.

Item: Cc1ncc2n1-c1ccc(Cl)cc1C(c1ccccc1F)=NC2 | Vd/F: 658

* * *

- Assay type: in vivo, human
- particulars: human, plasma, po, 5 mg
attributeMeasured: AUC(0-inf)
Answer format: value, then unit.

Item: Cc1ncc2n1-c1ccc(Cl)cc1C(c1ccccc1F)=NC2 | AUC(0-inf): 64.6 ng·h/mL

* * *

- Format: in vivo, human
- particulars: human, plasma, intravenous
attributeMeasured: Tmax (min)
Provide only the numeric value, understood in min.

Item: CN1CCN(c2ccc(Nc3ncc4cc5n(c4n3)C3(CCCCC3)CNC5=O)nc2)CC1 | Tmax: 28.8

* * *

- protocolDescription: clinical
- particulars: human, plasma, oral
attributeMeasured: Vd/F

Item: CN(C)C(=N)N=C(N)N | Vd/F: 556 L

* * *

- Assay type: in vivo, human
- particulars: human, plasma, iv, 240 mg/m2
attributeMeasured: clearance (mL/min)
Provide only the numeric value, understood in mL/min.

Item: CN1CCN(c2ccc(Nc3ncc4cc5n(c4n3)C3(CCCCC3)CNC5=O)nc2)CC1 | clearance: 2920

* * *

- Assay type: in vivo, human
- particulars: human, plasma, po, 5 mg
attributeMeasured: Cmax (ng/mL)
Provide only the numeric value, understood in ng/mL.

Item: Cc1ncc2n1-c1ccc(Cl)cc1C(c1ccccc1F)=NC2 | Cmax: 24.4

* * *

- Type: in vivo, human
- particulars: human, plasma, po, 5 mg
attributeMeasured: Vd/F (L)
Provide only the numeric value, understood in L.

Item: Cc1ncc2n1-c1ccc(Cl)cc1C(c1ccccc1F)=NC2 | Vd/F: 635

* * *

- Type: in vivo, human
- particulars: human, plasma, po, 5 mg
attributeMeasured: half-life (h)
Provide only the numeric value, understood in h.

Item: Cc1ncc2n1-c1ccc(Cl)cc1C(c1ccccc1F)=NC2 | half-life: 5.68

* * *

- Format: in vivo, human
- particulars: human, plasma, iv, 240 mg/m2
attributeMeasured: AUC(0-inf) (µg·h/mL)
Provide only the numeric value, understood in µg·h/mL.

Item: CN1CCN(c2ccc(Nc3ncc4cc5n(c4n3)C3(CCCCC3)CNC5=O)nc2)CC1 | AUC(0-inf): 2.7

* * *

- Assay type: in vivo, human
- particulars: human, plasma, intravenous
attributeMeasured: Tmax (min)
Provide only the numeric value, understood in min.

Item: CN1CCN(c2ccc(Nc3ncc4cc5n(c4n3)C3(CCCCC3)CNC5=O)nc2)CC1 | Tmax: 30

* * *

- Format: in vivo, human
- particulars: human, plasma, iv, 240 mg/m2
attributeMeasured: Cmax (ng/mL)
Provide only the numeric value, understood in ng/mL.

Item: CN1CCN(c2ccc(Nc3ncc4cc5n(c4n3)C3(CCCCC3)CNC5=O)nc2)CC1 | Cmax: 1600
